target: Voltage-dependent T-type calcium channel subunit alpha-1H (Homo sapiens) (UniProt O95180); assay: Cav3.2 calcium influx blockers – cell-based, Fluo-4 calcium fluorescence, FDSS, MLSMR library, primary screen (AID 449739); settings: Cav3.2-expressing cells, at 10 µM, active compounds read low
Sequence (O95180 whole entry, looked up): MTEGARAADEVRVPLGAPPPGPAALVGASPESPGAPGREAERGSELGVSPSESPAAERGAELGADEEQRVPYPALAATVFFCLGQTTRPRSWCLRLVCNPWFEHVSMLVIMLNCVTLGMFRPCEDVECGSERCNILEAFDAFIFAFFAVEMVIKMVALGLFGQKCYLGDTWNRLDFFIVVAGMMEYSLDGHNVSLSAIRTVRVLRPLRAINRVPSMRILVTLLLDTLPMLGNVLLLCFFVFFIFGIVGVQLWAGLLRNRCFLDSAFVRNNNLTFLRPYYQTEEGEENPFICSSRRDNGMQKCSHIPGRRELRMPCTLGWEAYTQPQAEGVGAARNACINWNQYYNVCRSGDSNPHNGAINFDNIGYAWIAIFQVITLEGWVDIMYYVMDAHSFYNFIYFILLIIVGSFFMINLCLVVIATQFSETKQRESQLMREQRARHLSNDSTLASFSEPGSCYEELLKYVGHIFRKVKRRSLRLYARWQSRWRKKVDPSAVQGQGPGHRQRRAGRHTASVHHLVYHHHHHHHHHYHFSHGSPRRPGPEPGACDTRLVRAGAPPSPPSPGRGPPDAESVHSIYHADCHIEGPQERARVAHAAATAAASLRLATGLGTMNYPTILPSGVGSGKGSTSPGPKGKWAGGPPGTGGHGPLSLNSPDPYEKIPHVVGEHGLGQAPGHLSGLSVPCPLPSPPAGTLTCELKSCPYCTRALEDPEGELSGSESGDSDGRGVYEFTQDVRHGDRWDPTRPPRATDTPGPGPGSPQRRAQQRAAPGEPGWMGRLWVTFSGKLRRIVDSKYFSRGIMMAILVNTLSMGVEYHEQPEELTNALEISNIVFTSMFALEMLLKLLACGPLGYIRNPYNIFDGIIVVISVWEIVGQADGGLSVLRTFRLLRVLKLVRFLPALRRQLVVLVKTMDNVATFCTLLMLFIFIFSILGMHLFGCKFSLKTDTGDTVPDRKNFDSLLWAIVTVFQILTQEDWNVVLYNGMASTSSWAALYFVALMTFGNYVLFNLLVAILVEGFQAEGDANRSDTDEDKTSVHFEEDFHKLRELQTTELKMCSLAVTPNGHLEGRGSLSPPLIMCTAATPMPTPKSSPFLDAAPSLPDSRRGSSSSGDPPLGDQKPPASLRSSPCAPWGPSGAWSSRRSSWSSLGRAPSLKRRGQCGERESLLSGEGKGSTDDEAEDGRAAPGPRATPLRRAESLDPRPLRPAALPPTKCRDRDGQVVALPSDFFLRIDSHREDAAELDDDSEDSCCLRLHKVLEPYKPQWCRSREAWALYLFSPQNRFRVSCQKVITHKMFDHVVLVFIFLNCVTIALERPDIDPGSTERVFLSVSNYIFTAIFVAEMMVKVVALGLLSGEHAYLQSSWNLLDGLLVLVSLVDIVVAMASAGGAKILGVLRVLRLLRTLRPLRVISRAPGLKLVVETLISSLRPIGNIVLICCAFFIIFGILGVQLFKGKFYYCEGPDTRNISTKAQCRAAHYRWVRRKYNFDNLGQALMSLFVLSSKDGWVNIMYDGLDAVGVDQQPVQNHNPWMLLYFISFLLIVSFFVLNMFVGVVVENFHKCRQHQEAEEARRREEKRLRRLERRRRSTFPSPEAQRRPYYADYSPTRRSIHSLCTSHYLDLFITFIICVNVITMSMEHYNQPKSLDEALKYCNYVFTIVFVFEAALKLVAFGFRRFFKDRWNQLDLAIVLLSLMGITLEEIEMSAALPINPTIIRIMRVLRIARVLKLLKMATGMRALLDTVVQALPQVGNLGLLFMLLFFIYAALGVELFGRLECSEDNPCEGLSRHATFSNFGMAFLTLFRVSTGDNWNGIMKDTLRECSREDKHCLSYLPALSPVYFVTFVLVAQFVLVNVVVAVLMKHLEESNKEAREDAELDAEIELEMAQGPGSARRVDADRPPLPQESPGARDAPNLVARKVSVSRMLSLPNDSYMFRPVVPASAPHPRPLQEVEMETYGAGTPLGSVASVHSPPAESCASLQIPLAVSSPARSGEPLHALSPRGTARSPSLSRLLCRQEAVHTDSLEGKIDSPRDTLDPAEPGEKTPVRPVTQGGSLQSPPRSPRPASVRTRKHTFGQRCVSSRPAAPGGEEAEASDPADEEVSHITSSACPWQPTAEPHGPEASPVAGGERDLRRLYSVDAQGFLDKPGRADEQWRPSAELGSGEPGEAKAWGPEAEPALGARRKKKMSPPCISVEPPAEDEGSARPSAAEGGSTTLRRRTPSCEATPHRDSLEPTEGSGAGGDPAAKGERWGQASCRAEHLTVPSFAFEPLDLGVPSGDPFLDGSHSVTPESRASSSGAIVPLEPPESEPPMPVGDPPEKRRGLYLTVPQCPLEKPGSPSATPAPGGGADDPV
Hit rate of the full screen: of about 100,000 compounds, about 4,200 (4.2%) were called active. This excerpt belongs to a sample that is enriched for actives.
The entries below are paired with their reported B-score.

Some solved cases for reference:
smiles_data=C#CCOCCOCCOCCNc1nc(N2CCN(C(=O)[C@H](C(C)C)n3cc(CCO)nn3)CC2)nc(N2CCN(C(=O)[C@H]([C@@H](C)CC)n3cc(CCCN=C(N)N)nn3)CC2)n1 meas_value="0.0921 (inactive)"
smiles_data=O=C(CCNS(=O)(=O)c1ccccc1C(F)(F)F)NCc1ccc2c(c1)OCO2 meas_value="-0.223 (inactive)"

Task item: Recorded B-score for C#CCCOC(=O)N1C2=NC(C(=O)OC)=C(C(=O)OC)[C@@H]3N(C)c4ccc(OC)cc4[C@]23C[C@H]1C(=O)OC with Voltage-dependent T-type calcium channel subunit alpha-1H (Homo sapiens) (UniProt O95180), please?
Reply: 0.061 (inactive)

Task item: Hello, I am looking for reported B-score with Voltage-dependent T-type calcium channel subunit alpha-1H (Homo sapiens) (UniProt O95180) for O=C(Nc1cccc2ncccc12)c1ccc(-c2ccc(Cl)cc2Cl)o1 . Could you help?
Reply: -0.641 (inactive)

Task item: Find B-score (Voltage-dependent T-type calcium channel subunit alpha-1H (Homo sapiens) (UniProt O95180)) for the entry CCOc1ccc(OCC)c(-c2c(=O)n(OCc3ccc(Cl)cc3)c3ccccc3[n+]2[O-])c1
Reply: -1.31 (inactive)

Task item: Can you look up B-score on Voltage-dependent T-type calcium channel subunit alpha-1H (Homo sapiens) (UniProt O95180) for COC(=O)Cn1c2ccc(C)cc2c2nc(C)sc21 ?
Reply: 1.71 (inactive)

Task item: Give Voltage-dependent T-type calcium channel subunit alpha-1H (Homo sapiens) (UniProt O95180) B-score for O=C(c1cccc(F)c1)N1CCN(c2ccc([N+](=O)[O-])c(N3CCCCC3)c2)CC1
Reply: -2.45 (inactive)

Task item: Report B-score for COc1ccc2c(c1)CC[C@@H]1[C@@H]2CC[C@]2(C)C(=O)CC[C@@H]12 tested on Voltage-dependent T-type calcium channel subunit alpha-1H (Homo sapiens) (UniProt O95180).
Reply: -0.311 (inactive)

====

target: Voltage-dependent T-type calcium channel subunit alpha-1H (Homo sapiens) (UniProt O95180); assay: Cav3.2 calcium influx blockers – cell-based, Fluo-4 calcium fluorescence, FDSS, MLSMR library, primary screen (AID 449739); details: Cav3.2-expressing cells, at 10 µM, active compounds read low
Screen size: about 100,000 compounds; about 4,200 (4.2%) were called active. For the sample, actives were picked, then their nearest neighbours and some compounds at random.
So basically: is B-score under -2? Then 1 (yes). Not under? Then 0 (no).

Examples with answers:
molecule="COc1ccc(C(C(=O)NCc2ccccc2)N(Cc2cccs2)C(=O)c2cnccn2)cc1 (stereo not drawn)" cat="0 (no)"
molecule=COc1cc([C@H](Cc2ccccc2)NC(C)=O)oc(=O)c1 cat="0 (no)"
molecule=O=C(c1cccs1)N1CCN(Cc2ccc3c(c2)OCO3)CC1 cat="0 (no)"

Now look at this one.
Task item: API: query returns whether the molecule falls strictly under -2 in B-score. Query: CCN(c1ccccc1)S(=O)(=O)c1ccc(NC(=O)C(C)(C)C)cc1
Reply: 0 (no)

====

biological target: Voltage-dependent T-type calcium channel subunit alpha-1H (Homo sapiens) (UniProt O95180); assay: Cav3.2 calcium influx blockers – cell-based, Fluo-4 calcium fluorescence, FDSS, MLSMR library, primary screen (AID 449739); settings: Cav3.2-expressing cells, at 10 µM
The campaign covered roughly 100,000 compounds. About 4,200 (4.2%) were called active.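 How the source made its calls: active means single-dose well whose peak fluorescence ratio is a statistical outlier from its plate by either plate-standardised score or position-corrected B-score; inactive means the rest.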 The list comes from a sample in which actives are over-represented; it also holds close analogues and randomly drawn compounds.
Thanks in advance; please answer with one of these: yes = active, no = inactive

Use these answered entries as a reference point.
molecule="O=c1cc(CO)oc(C(Nc2cccc(C(F)(F)F)c2)c2ccccn2)c1O (stereo unspecified)" test_target="Voltage-dependent T-type calcium channel subunit alpha-1H (Homo sapiens) (UniProt O95180)" cat=no
molecule=N#Cc1nc(Cc2ccccc2)oc1NCCc1ccccc1 test_target="Voltage-dependent T-type calcium channel subunit alpha-1H (Homo sapiens) (UniProt O95180)" cat=yes
molecule=O=C(NCc1ccccc1)[C@H]1C[C@@H]1[C@H](NP(=O)(c1ccccc1)c1ccccc1)c1ccccc1 test_target="Voltage-dependent T-type calcium channel subunit alpha-1H (Homo sapiens) (UniProt O95180)" cat=yes
molecule=O=C(CSCc1ccccc1Cl)NNC(=O)c1ccccc1 test_target="Voltage-dependent T-type calcium channel subunit alpha-1H (Homo sapiens) (UniProt O95180)" cat=no
molecule="CC1CC(C)CN(CC(=O)N2c3ccccc3CCc3ccccc32)C1 (stereo unspecified)" test_target="Voltage-dependent T-type calcium channel subunit alpha-1H (Homo sapiens) (UniProt O95180)" cat=no

From here, focus on the item given below.
Task item: Per the assay record, what outcome was assigned to O=C(CN1CCCCC1)N1c2ccccc2Sc2ccc(C(F)(F)F)cc21 ?
Reply: no

====

molecular target: Voltage-dependent T-type calcium channel subunit alpha-1H (Homo sapiens) (UniProt O95180); test: Cav3.2 calcium influx blockers – cell-based, Fluo-4 calcium fluorescence, FDSS, MLSMR library, primary screen (AID 449739); conditions: Cav3.2-expressing cells, at 10 µM
About 4,200 (4.2%) of roughly 100,000 compounds were called active.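 How the source made its calls: active means single-dose well whose peak fluorescence ratio is a statistical outlier from its plate by either plate-standardised score or position-corrected B-score; inactive means the rest.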 This is one part of a sample in which actives are shown more often than they occur.
Choose one outcome from this list and give only that: active, inactive

Some solved cases for reference:
compound="CCCCCCCCOC1OC(CO)C(O)C(O)C1NC(C)=O (stereo not given)" cat=inactive
compound=CSc1cc(C)n(-c2ccccc2C)c(=S)c1C(C)=O cat=inactive
compound=Cc1cnc(NC(=O)CSc2c(Cl)cccc2Cl)s1 cat=inactive
compound=CC1(C)C=C2[C@H]3CC[C@@H]4[C@@]5(C)CCC(=O)C(C)(C)[C@@H]5CC[C@@]4(C)[C@]3(C)CC[C@@]2(C(=O)O)CC1 cat=inactive

Task item: Hi team, can someone confirm the assay call for CNC(=O)c1[nH]cnc1C(=O)N[C@@H](CC(C)C)C(=O)OC(C)(C)C ?
Reply: inactive

Task item: Test call, this compound: O=C(/C=C/c1ccccc1)c1ccccc1O
Reply: inactive

Task item: Lab log entry: Cc1nn2c(c1-c1ccccc1)N=C(c1ccco1)CC2c1ccccc1 (stereo not given) — outcome as called in the assay?
Reply: active

Task item: Would you mind telling me which call this test gave Cc1nn(C(=O)c2ccoc2C)c(N)c1-c1ccccc1 ?
Reply: inactive

====

molecular target: Voltage-dependent T-type calcium channel subunit alpha-1H (Homo sapiens); experiment: Cav3.2 calcium influx blockers – cell-based, Fluo-4 calcium fluorescence, FDSS, MLSMR library, primary screen (AID 449739); conditions: Cav3.2-expressing cells, at 10 µM, active compounds read low
About 4,200 (4.2%) of roughly 100,000 compounds were called active. The sample as a whole holds a higher share of actives than the screen did.
reported endpoint: B-score
Number, no unit, nothing else.

# count of solved cases: 5
molecule=CSc1ccc(S(=O)(=O)NCc2ccc(Cl)cc2)cc1 meas_value=-1.35
molecule=CSc1ccc(S(=O)(=O)Nc2cccc(F)c2)cc1 meas_value=-4.09
molecule="COc1ccc(C(=O)CN2C(=O)NC(C)(c3ccc(C)cc3)C2=O)cc1OC (centres undefined)" meas_value=-0.586
molecule="Cc1cc(N2C(=O)C(=O)/C(=C(/O)c3ccc(Cl)cc3)C2c2cccc(Br)c2)no1 (centres undefined)" meas_value=-7.89
molecule=CC(C)Oc1ccc(CCc2n[nH]c(=S)n2Cc2ccccc2)cc1 meas_value=-1.48

Task item: May I ask what B-score has been recorded for CCOc1ccccc1Oc1cn[nH]c1-c1ccc(OC)cc1O ?
Reply: -3.81

Task item: Quick one: B-score of Cc1nc(-c2ccc(Cl)cc2)sc1C1(C)CC(c2ccc(Br)cc2)=NO1 (centres undefined) ?
Reply: -0.405

Task item: Query (molecule): CCOc1ccccc1N(CC(=O)NC1CCCCC1)C(=O)CCCC(=O)Nc1ccccn1 ; field requested: B-score
Reply: -8.92

Task item: Dear colleague, I am looking for the recorded B-score of the following molecule: CCSc1nnc(-c2cc3c(s2)-c2ccccc2CC3)o1
Reply: 0.187

Task item: Name the reported B-score value associated with the molecule O=C(Nc1ccc(Cl)c(Cl)c1)N1CC=C(c2ccccc2)CC1
Reply: -6.72

====

target: Voltage-dependent T-type calcium channel subunit alpha-1H (Homo sapiens) (UniProt O95180); assay: Cav3.2 calcium influx blockers – cell-based, Fluo-4 calcium fluorescence, FDSS, MLSMR library, primary screen (AID 449739); details: Cav3.2-expressing cells, at 10 µM, active compounds read low
Out of some 100,000 compounds screened, about 4,200 (4.2%) were called active. The entries come from a sample that favours actives as a whole.
B-score less than -0.007 is rule met; B-score greater than or equal to -0.007 is rule not met.

Task item: Please check: B-score for CC1=C(C(=O)Nc2ccccc2)C(c2ccco2)C(C#N)=C(SCC(N)=O)N1 (configuration not stated) , strictly under -0.007 or not?
Reply: rule met

Task item: B-score strictly < -0.007 for this compound? CCN(CC)C(=O)CN(c1cccc(OC)c1)S(=O)(=O)c1ccc(C)cc1
Reply: rule not met

Task item: Say whether its B-score is strictly beneath -0.007. Entry: Cc1ccc(C)c(NC(=O)C2CC(=O)N(C(C)C)C2)c1 (configuration not stated)
Reply: rule met

Task item: Decide: B-score of Cc1cc(C)cc(N(CC(=O)N2CC=C(c3ccccc3)CC2)S(=O)(=O)c2c(C)noc2C)c1 strictly below -0.007?
Reply: rule met
